B1: TRIM35 (parent)
chain: PTCPVCKDRASPADLRTNHTLNNL

- Variants of: B1
- protocol_summary: protein stability index of a GFP-peptide fusion (GPS, HEK-293T) (PSI 1-6); higher = more stable;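 also: lentivirally expressed fusions sorted by FACS into six bins by GFP to DsRed ratio, PSI derived from sequencing read proportions per bin multiplied by bin number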
- experimental_setup: c terminus: a fixed tail appended
# label = yes if protein stability index >= 3 else no

In [3]: df
Out[3]:
   mutation_key  discrete_label
0           K7S              no

Query: Threshold query (protein stability index >= 3) on "T2D"
Reply: yes

Query: Dear colleague, could you confirm whether "L24A" has protein stability index at or above 3?
Reply: yes

Query: Given "N18L" , state whether its protein stability index is at least 3.
Reply: no
